Test system: OVCAR-3 cells
assay.explanation: cells
Assay type: cell-based
condition.set: Homo sapiens, OVCAR-3, read-out: IC50 (concentration causing 50% inhibition of cell growth)
endpoint.label: pIC50
Here pIC50 is given on a logarithmic scale as minus log10 of the concentration in mol/L.

Input `CC(C)=CCC/C(C)=C/CC/C(C)=C/CSc1ccccc1C(=O)O` . Output pIC50: 4.27
